- Target desc: His6-ERα298-554 D538G mutant (ERα ligand-binding domain) (Homo sapiens (Human), UniProt P03372, D538G)
- Sequence (P03372 298-554 D538G): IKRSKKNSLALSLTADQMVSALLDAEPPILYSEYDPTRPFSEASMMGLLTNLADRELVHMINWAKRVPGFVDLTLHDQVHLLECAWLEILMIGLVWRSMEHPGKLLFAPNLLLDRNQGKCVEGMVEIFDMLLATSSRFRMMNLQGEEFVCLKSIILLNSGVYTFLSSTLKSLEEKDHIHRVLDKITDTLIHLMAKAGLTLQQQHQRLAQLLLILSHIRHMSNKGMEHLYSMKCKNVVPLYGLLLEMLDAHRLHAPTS
- Protocol text: Test A: biochemical antagonist activity, LanthaScreen TR-FRET ERα coactivator assay, D538G mutant
- Details: protocol with 3 nM estradiol; read-out: Antagonism D538G IC50
Rule: measured IC50 below 70 nM gets met; anything equal to or greater than 70 nM gets not met.

q: Quick check: IC50 of O=S1(=O)CCC(c2cccc(F)c2Cl)=C(c2ccc(O[C@H]3CCN(CCCF)C3)cc2)c2ccc(O)cc21 [Example 232] under 70 nM?
a: not met

q: Quick check: IC50 of Cc1ccc(C2=C(c3ccc(O[C@H]4CCN(CCCF)C4)cc3)c3cc(F)c(O)cc3OCC2)c(F)c1 [Example 138] under 70 nM?
a: not met

q: Quick check: IC50 of O=S1(=O)CCC(c2cccc(O)c2)=C(c2ccc(O[C@H]3CCN(CCCF)C3)cc2)c2ccc(O)cc21 [Example 228] under 70 nM?
a: not met

q: Quick check: IC50 of Cc1cc(F)ccc1C1=C(c2ccc(O[C@H]3CCN(CCCF)C3)cc2)c2cc(O)ccc2SCC1 [Example 180] under 70 nM?
a: met

q: Quick check: IC50 of Oc1ccc2c(c1)SCCC(c1ccc(F)cc1Cl)=C2c1ccc(O[C@H]2CCN(CCCF)C2)cc1 [Example 159] under 70 nM?
a: met

q: Quick check: IC50 of Oc1ccc2c(c1)OCCC(c1ccc(Cl)cc1Cl)=C2c1ccc(O[C@H]2CCN(CCCF)C2)cc1 [Example 102] under 70 nM?
a: not met

q: Quick check: IC50 of Oc1ccc2c(c1)OCCC(c1ccc(Cl)cc1F)=C2c1ccc(O[C@H]2CCN(CCCF)C2)cc1 [Example 98] under 70 nM?
a: not met

q: Quick check: IC50 of Cc1cc(F)ccc1C1=C(c2ccc(O[C@H]3CCN(CCCF)C3)cc2)c2ccc(O)cc2S(=O)(=O)CC1 [Example 234] under 70 nM?
a: met

q: Quick check: IC50 of Oc1ccc2c(c1)SCC(c1ccc(SC(F)(F)F)cc1)=C2c1ccc(O[C@H]2CCN(CCCF)C2)cc1 [Example 66] under 70 nM?
a: not met

q: Quick check: IC50 of Oc1ccc2c(c1)SCC(c1ccc(Cl)cc1F)=C2c1ccc(O[C@H]2CCN(CCCF)C2)cc1 [Example 18] under 70 nM?
a: met

q: Quick check: IC50 of Oc1ccc2c(c1Cl)OCCC(c1cccc3[nH]ccc13)=C2c1ccc(O[C@H]2CCN(CCCF)C2)cc1 [Example 124] under 70 nM?
a: not met

q: Quick check: IC50 of Oc1ccc2c(c1F)OCCC(c1cccc3c1CCN3)=C2c1ccc(O[C@H]2CCN(CCCF)C2)cc1 [Example 134] under 70 nM?
a: not met

q: Quick check: IC50 of Oc1ccc2c(c1Cl)OCCC(c1ccc3c(c1)CCN3)=C2c1ccc(O[C@H]2CCN(CCCF)C2)cc1 [Example 115] under 70 nM?
a: not met

q: Quick check: IC50 of Oc1cccc(C2=C(c3ccc(O[C@H]4CCN(CCCF)C4)cc3)c3ccc(O)cc3SCC2)c1 [Example 158] under 70 nM?
a: met

q: Quick check: IC50 of CCOc1ccc(C2=C(c3ccc(O[C@H]4CCN(CCCF)C4)cc3)c3ccc(O)cc3SC2)c(F)c1 [Example 26] under 70 nM?
a: met

* * *

- Target desc: His6-ERα298-554 WT (ERα ligand-binding domain) (Homo sapiens (Human), UniProt P03372)
- Sequence (P03372 298-554): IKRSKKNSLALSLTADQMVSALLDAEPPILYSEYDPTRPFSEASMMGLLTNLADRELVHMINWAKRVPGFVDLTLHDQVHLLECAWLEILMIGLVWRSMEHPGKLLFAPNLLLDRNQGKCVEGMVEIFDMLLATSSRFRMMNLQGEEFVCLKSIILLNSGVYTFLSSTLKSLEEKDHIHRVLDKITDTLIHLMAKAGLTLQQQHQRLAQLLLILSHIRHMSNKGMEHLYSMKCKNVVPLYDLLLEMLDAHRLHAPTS
- Protocol text: Test A: biochemical antagonist activity, LanthaScreen TR-FRET ERα coactivator assay, WT
- Details: asterisk (*): protocol using 10 nM estradiol; read-out: Antagonism WT IC50
Measured parameter: pIC50
Note on units: pIC50 is unitless, being -log10 of a concentration expressed in mol/L.

q: Output pIC50 of CCOc1ccc(C2=C(c3ccc(O[C@H]4CCN(CCCF)C4)nc3)c3ccc(O)cc3SC2)c(F)n1
a: 9.30

q: Output pIC50 of CCOc1ccc(C2=C(c3ccc(O[C@H]4CCN(CCCF)C4)cc3)c3ccc(O)cc3SC2)c(Cl)c1
a: 7.96

q: Output pIC50 of CC(C)(C)c1ccc(C2=C(c3ccc(O[C@H]4CCN(CCCF)C4)cc3)c3ccc(O)cc3SC2)c(F)n1
a: 5.60

q: Output pIC50 of COc1ccc(C2=C(c3ccc(O[C@H]4CCN(CCCF)C4)cc3)c3ccc(O)cc3OCC2)c(Cl)c1
a: 8.30

q: Output pIC50 of [O-][S+]1CCC(c2ccc(OC(F)(F)F)cc2)=C(c2ccc(O[C@H]3CCN(CCCF)C3)cc2)c2ccc(O)cc21 (stereo partly drawn) [Example 225]
a: 6.12

q: Output pIC50 of Cc1cc(C2=C(c3ccc(O[C@H]4CCN(CCCF)C4)nc3)c3ccc(O)c(F)c3CCC2)ccc1Cl
a: 8.15

q: Output pIC50 of CCOc1ccc(C2=C(c3cnc(O[C@H]4CCN(CCCF)C4)nc3)c3ccc(O)cc3SC2)c(F)n1
a: 8.40

q: Output pIC50 of Oc1ccc2c(c1)CCCC(c1ccc(OC(F)(F)F)cc1)=C2c1ccc(O[C@H]2CCN(CCCF)C2)nc1
a: 8.15

q: Output pIC50 of CCN(CC)c1ccc(C2=C(c3ccc(O[C@H]4CCN(CCCF)C4)cc3)c3ccc(O)cc3SC2)c(F)c1
a: 6.49

q: Output pIC50 of CCOc1ccc(C2=C(c3ccc(O[C@H]4CCN(CCCF)C4)cc3)c3ccc(O)cc3SC2)c(C)c1
a: 8.05

q: Output pIC50 of Oc1ccc2c(c1)CCCC(c1ccc(Cl)cc1Cl)=C2c1ccc(N[C@H]2CCN(CCCF)C2)cc1
a: 9.00

q: Output pIC50 of CC1(C)CNc2ccc(C3=C(c4ccc(O[C@H]5CCN(CCCF)C5)cc4)c4ccc(O)cc4SC3)cc21
a: 5.96

q: Output pIC50 of CCOc1ccc(C2=C(c3ccc(O[C@H]4CCN(CCCF)C4)cc3)c3ccc(O)cc3SCC2)c(C)c1
a: 9.00

q: Output pIC50 of CC1Cc2cc(C3=C(c4ccc(O[C@H]5CCN(CCCF)C5)cc4)c4ccc(O)cc4SCC3)ccc2O1 (stereo partly drawn)
a: 9.00

* * *

Exercise: for every item that follows, state its recorded % Degradation at 3 μM.
- Target desc: ERα in MCF7 cells (Homo sapiens (Human), UniProt P03372)
- Sequence (P03372 whole entry): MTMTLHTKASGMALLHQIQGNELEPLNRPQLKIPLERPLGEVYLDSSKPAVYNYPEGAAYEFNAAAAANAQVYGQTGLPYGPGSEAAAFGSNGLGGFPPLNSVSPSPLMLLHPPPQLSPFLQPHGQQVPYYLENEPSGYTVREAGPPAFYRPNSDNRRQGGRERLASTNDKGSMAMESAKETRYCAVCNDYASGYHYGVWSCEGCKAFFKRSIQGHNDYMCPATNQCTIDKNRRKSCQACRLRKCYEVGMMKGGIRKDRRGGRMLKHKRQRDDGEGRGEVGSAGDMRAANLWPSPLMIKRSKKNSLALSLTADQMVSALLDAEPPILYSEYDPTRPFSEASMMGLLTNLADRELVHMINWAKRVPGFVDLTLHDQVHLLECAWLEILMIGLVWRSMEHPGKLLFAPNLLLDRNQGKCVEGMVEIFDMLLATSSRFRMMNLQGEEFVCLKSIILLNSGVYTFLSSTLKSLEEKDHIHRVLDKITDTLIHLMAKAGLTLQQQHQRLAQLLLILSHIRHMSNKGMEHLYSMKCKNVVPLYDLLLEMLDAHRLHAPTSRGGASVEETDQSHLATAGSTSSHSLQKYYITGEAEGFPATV
- Protocol text: Test C: estrogen receptor degradation activity, ERα in cell western assay in MCF7 cells
- Assay type: cell-based
- Details: at 3 μM, 4 hours, relative to fulvestrant
Quick note: give the figure in %, leave out the unit.

q: Answer with % Degradation at 3 μM of Oc1cc2c(cc1F)C(c1ccc(O[C@H]3CCN(CCCF)C3)cc1)=C(c1ccc3occc3c1)CCO2 measured for ERα in MCF7 cells (Homo sapiens (Human), UniProt P03372).
a: 85

q: Answer with % Degradation at 3 μM of Oc1cc2c(cc1Cl)C(c1ccc(O[C@H]3CCN(CCCF)C3)cc1)=C(c1ccc3[nH]ccc3c1)CCO2 measured for ERα in MCF7 cells (Homo sapiens (Human), UniProt P03372).
a: 75

q: Answer with % Degradation at 3 μM of CCOc1nccc(C2=C(c3ccc(O[C@H]4CCN(CCCF)C4)cc3)c3ccc(O)cc3SC2)c1F measured for ERα in MCF7 cells (Homo sapiens (Human), UniProt P03372).
a: 81

q: Answer with % Degradation at 3 μM of Oc1ccc2c(c1)CCCC(c1ccc(Cl)cc1Cl)=C2c1ccc(O[C@H]2CCN(CCCF)C2)nc1 measured for ERα in MCF7 cells (Homo sapiens (Human), UniProt P03372).
a: 87

q: Answer with % Degradation at 3 μM of Oc1ccc2c(c1)SCC(c1ccc(F)nc1F)=C2c1ccc(O[C@H]2CCN(CCCF)C2)cc1 measured for ERα in MCF7 cells (Homo sapiens (Human), UniProt P03372).
a: 89

q: Answer with % Degradation at 3 μM of Oc1ccc2c(c1)SCCC(c1cnc3c(c1)CCN3)=C2c1ccc(O[C@H]2CCN(CCCF)C2)cc1 measured for ERα in MCF7 cells (Homo sapiens (Human), UniProt P03372).
a: 83

q: Answer with % Degradation at 3 μM of Cc1ccc(C2=C(c3ccc(O[C@H]4CCN(CCCF)C4)nc3)c3ccc(O)cc3SCC2)c(Cl)c1 measured for ERα in MCF7 cells (Homo sapiens (Human), UniProt P03372).
a: 85

q: Answer with % Degradation at 3 μM of Oc1ccc2c(c1)SCC(c1ccc3[nH]ccc3c1)=C2c1ccc(O[C@H]2CCN(CCCF)C2)cc1 measured for ERα in MCF7 cells (Homo sapiens (Human), UniProt P03372).
a: 78

q: Answer with % Degradation at 3 μM of Cc1c(Cl)cccc1C1=C(c2ccc(O[C@H]3CCN(CCCF)C3)cc2)c2ccc(O)cc2OCC1 measured for ERα in MCF7 cells (Homo sapiens (Human), UniProt P03372).
a: 92

q: Answer with % Degradation at 3 μM of Cc1ccc(C2=C(c3ccc(O[C@H]4CCN(CCCF)C4)cc3)c3ccc(O)cc3SC2)c(F)c1F measured for ERα in MCF7 cells (Homo sapiens (Human), UniProt P03372).
a: 81

q: Answer with % Degradation at 3 μM of Oc1ccc2c(c1)SCCC(c1ccc(Cl)cc1F)=C2c1ccc(O[C@H]2CCN(CCCF)C2)cc1 measured for ERα in MCF7 cells (Homo sapiens (Human), UniProt P03372).
a: 87

q: Answer with % Degradation at 3 μM of O=S1(=O)CCC(c2ccc(F)cc2Cl)=C(c2ccc(O[C@H]3CCN(CCCF)C3)cc2)c2ccc(O)cc21 measured for ERα in MCF7 cells (Homo sapiens (Human), UniProt P03372).
a: 89

q: Answer with % Degradation at 3 μM of O=S1(=O)CCC(c2ccc(Cl)cc2F)=C(c2ccc(O[C@H]3CCN(CCCF)C3)cc2)c2ccc(O)cc21 measured for ERα in MCF7 cells (Homo sapiens (Human), UniProt P03372).
a: 94

q: Answer with % Degradation at 3 μM of CC1(C)Cc2cc(C3=C(c4ccc(O[C@H]5CCN(CCCF)C5)cc4)c4ccc(O)cc4SCC3)ccc2N1 measured for ERα in MCF7 cells (Homo sapiens (Human), UniProt P03372).
a: 87

q: Answer with % Degradation at 3 μM of Oc1ccc2c(c1)SCCC(c1ccc3[nH]ccc3c1)=C2c1ccc(O[C@H]2CCN(CCCF)C2)cc1 measured for ERα in MCF7 cells (Homo sapiens (Human), UniProt P03372).
a: 75
